System: SJSA-1 cells
Assay: Cell lysis by peptidomimetic macrocycles (LDH release)
Format: cell-based
Details: 6.25 uM, 1 h at 37C
ASSAY_ENDPOINT: 6.25 uM % Lysed cells (1 h LDH) (%)
Give just the numeric value; % need not be written.

Incoming: Give the value of 6.25 uM % Lysed cells (1 h LDH) reported for the following: CC(C)CC[C@@H]1NC(=O)[C@H](CCC(N)=O)NC(=O)[C@H](C)NC(=O)[C@H](Cc2c[nH]c3ccccc23)NC(=O)[C@H](Cc2ccc(O)cc2)NC(=O)[C@H](CCC(=O)O)NC(=O)[C@](C)(NC(=O)[C@H](Cc2ccccc2)NC(=O)[C@@H](NC(=O)[C@H](CC(C)C)NC(=O)CN(C)C)[C@@H](C)O)CCCCCCC=CCCC[C@@](C)(C(=O)N[C@@H](CO)C(=O)N[C@@H](C)C(=O)N[C@@H](C)C(N)=O)NC1=O [compound 279]
Outgoing: 6

Incoming: Give the value of 6.25 uM % Lysed cells (1 h LDH) reported for the following: CC(=O)N[C@@H](CC(C)C)C(=O)N[C@H](C(=O)N[C@@H](Cc1ccccc1)C(=O)N[C@]1(C)CCCCCCC=CCCC[C@@](C)(C(=O)N[C@@H](CO)C(=O)N[C@@H](CC(C)C)C(=O)N[C@@H](C)C(N)=O)NC(=O)[C@H](CC(C)C)NC(=O)[C@H](CCC(N)=O)NC(=O)[C@H](C)NC(=O)[C@H](Cc2c[nH]c3ccccc23)NC(=O)[C@H](Cc2ccc(O)cc2)NC(=O)[C@H](C)NC1=O)[C@@H](C)O (single isomer, unassigned) [compound 118]
Outgoing: 4

Incoming: Give the value of 6.25 uM % Lysed cells (1 h LDH) reported for the following: CC(=O)N[C@@H](CC(C)C)C(=O)N[C@H](C(=O)N[C@@H](Cc1ccccc1)C(=O)N[C@]1(C)CCCCCCC=CCCC[C@@](C)(C(=O)N[C@@H](CO)C(=O)N[C@@H](C)C(=O)N[C@@H](CO)C(N)=O)NC(=O)[C@H](CC(C)C)NC(=O)[C@H](CCC(N)=O)NC(=O)[C@H](C)NC(=O)[C@H](Cc2c[nH]c3ccccc23)NC(=O)[C@H](Cc2ccc(O)cc2)NC(=O)[C@H](C(C)C)NC1=O)[C@@H](C)O (single isomer, unassigned) [compound 144]
Outgoing: 1

---

Biological target: MDM2 (Homo sapiens)
Sequence (Q00987 1-125): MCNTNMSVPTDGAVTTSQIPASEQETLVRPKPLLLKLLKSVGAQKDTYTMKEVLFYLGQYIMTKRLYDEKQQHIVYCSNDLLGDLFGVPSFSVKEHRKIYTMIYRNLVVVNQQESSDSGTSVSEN
Assay: Competitive fluorescence polarization assay for MDM2
Format: binding
Settings: competitive FP assay, MDM2; read-out: IC50 (MDM2)
ASSAY_ENDPOINT: IC50

Incoming: Give the value of IC50 reported for the following: CC(=O)N[C@@H](CC(C)C)C(=O)N[C@H](C(=O)N[C@@H](Cc1ccccc1)C(=O)N[C@]1(C)CCCCCCC=CCCC[C@@](C)(C(=O)N[C@@H](CO)C(=O)N[C@H](C(=O)N[C@@H](CO)C(N)=O)C(C)C)NC(=O)[C@H](CC(C)C)NC(=O)[C@H](CCC(N)=O)NC(=O)[C@H](C)NC(=O)[C@H](Cc2c[nH]c3ccccc23)NC(=O)[C@H](Cc2ccc(O)cc2)NC(=O)[C@H](C(C)C)NC1=O)[C@@H](C)O (single isomer, unassigned)
Outgoing: < 10 nM

Incoming: Give the value of IC50 reported for the following: CC[C@H](C)[C@H](NC(C)=O)C(=O)N[C@H](C(=O)N[C@@H](Cc1ccccc1)C(=O)N[C@]1(C)CCCCCCC=CCCC[C@@](C)(C(=O)N[C@@H](C)C(=O)N[C@@H](Cc2c[nH]cn2)C(=O)N[C@@H](Cc2ccccc2)C(=O)N[C@@H](C)C(N)=O)NC(=O)[C@H](CC(C)C)NC(=O)[C@H](CCC(N)=O)NC(=O)[C@H](C)NC(=O)[C@H](Cc2c[nH]c3ccccc23)NC(=O)[C@H](Cc2c[nH]cn2)NC(=O)[C@H](CCC(=O)O)NC1=O)[C@@H](C)O (single isomer, unassigned)
Outgoing: 10 to 100 nM
